pIC50: −log10 of the molar value.
Listed below are compounds with pIC50 for Beta-glucosidase A (Caldicellulosiruptor saccharolyticus), each taken from published literature.
measuredParameter: pIC50

For orientation, consider the following solved cases.
OC1CNC(CNCn2ccnc2)C1O (centres undefined) ... 3.54
CC(O)[C@H]1N[C@H](CO)[C@@H](O)[C@@H]1O (single isomer, unassigned) ... 5.17
OC1CNC(CNCC2CCN(Cc3ccccc3)CC2)C1O (centres undefined) ... 3.54

(a) CCCCCCCCN1CC(O)C(O)C(O)C1CO (centres undefined)
(b) CCCCCCCCCC1NC(CO)C(O)C(O)C1O (centres undefined)
Param pair: a , b . Output: the one whose pIC50 is numerically greater. State the label of the item chosen.
b

(A) OCC(O)[C@H]1N[C@H](CO)[C@@H](O)[C@@H]1O (single isomer, unassigned)
(B) CCCCCCN1CC(O)C(O)C(O)C1CO (centres undefined)
Param pair: A , B . Output: the one whose pIC50 is numerically greater. State the label of the item chosen.
A

(1) OCC[C@H]1N[C@H](CO)[C@@H](O)[C@@H]1O
(2) CCCN1CC(O)C(O)C(O)C1CO (centres undefined)
Param pair: 1 , 2 . Output: the one whose pIC50 is numerically greater. State the label of the item chosen.
2
